# System: UO-31 renal
# assay-comment: NCI-60 one-dose screen, 48 h (100 = growth as untreated, 0 = no growth, -100 = all killed)
# condition-summary: 10 µM unless noted
Compounds without any hit were thinned out: in the full panel of roughly 83,000, 20% have a hit.
# key: entry, value: growth
Write it as a number; the unit % goes unstated.

Example entries begin here.
compound=Cc1[nH]c(C(=O)Nc2ccccc2OCc2cccc(C(=O)NCCN)c2)c(Cl)c1Cl measure=growth unit_text=% value_observed=75
compound=C=C(C)[C@@H]1CC[C@]2(CO)CC[C@]3(C)[C@H](CC[C@@H]4[C@@]5(C)CCCNC(C)(C)[C@@H]5CC[C@]43C)[C@@H]12 measure=growth unit_text=% value_observed=53.8
compound=COc1ccc(C(=O)c2cc3c(N)c(C(=O)Nc4ccc(Cl)cc4)sc3nc2C)cc1 measure=growth unit_text=% value_observed=79
compound="Fc1ccc(C2CC(c3cccc(Nc4ccncc4)c3)=NN2c2ccccc2)cc1 (stereo unspecified)" measure=growth unit_text=% value_observed=62.8
compound="CC(C)(O)C1CCCN1C(=O)c1ccccc1I (stereo unspecified)" measure=growth unit_text=% value_observed=82.7

Moving on to the next compound.
Answer with growth of Cc1cc2nc(-c3ccccc3)c(-c3ccccc3)nc2cc1C measured for UO-31 renal.
113
